- testedOn: Recombinant human calpain I (Homo sapiens)
- Construct: made in house
- Sequence (P07384 whole entry): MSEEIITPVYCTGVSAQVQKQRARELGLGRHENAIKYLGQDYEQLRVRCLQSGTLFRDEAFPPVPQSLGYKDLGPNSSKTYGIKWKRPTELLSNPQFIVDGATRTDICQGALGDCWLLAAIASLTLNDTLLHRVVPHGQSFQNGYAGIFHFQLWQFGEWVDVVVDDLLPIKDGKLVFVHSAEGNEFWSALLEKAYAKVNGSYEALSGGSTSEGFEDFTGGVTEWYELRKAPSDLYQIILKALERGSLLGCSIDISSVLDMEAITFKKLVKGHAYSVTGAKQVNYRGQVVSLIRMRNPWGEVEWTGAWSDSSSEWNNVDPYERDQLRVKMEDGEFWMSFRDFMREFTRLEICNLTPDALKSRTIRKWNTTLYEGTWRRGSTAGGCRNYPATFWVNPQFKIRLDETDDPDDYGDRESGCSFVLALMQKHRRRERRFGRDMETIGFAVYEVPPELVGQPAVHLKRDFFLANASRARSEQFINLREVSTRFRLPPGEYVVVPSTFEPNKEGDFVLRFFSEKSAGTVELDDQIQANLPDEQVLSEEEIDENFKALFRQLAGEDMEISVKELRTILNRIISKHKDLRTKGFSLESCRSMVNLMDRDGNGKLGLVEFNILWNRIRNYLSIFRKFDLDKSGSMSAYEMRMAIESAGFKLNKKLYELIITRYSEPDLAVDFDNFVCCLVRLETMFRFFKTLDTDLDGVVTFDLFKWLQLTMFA
- Sequence (P04632 whole entry partner): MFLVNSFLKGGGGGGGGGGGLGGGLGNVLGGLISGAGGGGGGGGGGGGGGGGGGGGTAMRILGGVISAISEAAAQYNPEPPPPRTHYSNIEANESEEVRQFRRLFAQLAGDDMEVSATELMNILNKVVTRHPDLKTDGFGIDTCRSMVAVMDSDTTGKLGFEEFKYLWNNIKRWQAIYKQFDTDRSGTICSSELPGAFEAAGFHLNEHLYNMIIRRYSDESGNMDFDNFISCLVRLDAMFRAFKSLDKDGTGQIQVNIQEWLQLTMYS
- methodDescription: Inhibition of cysteine protease activity: calpain I, Succ-Leu-Tyr-MNA substrate hydrolysis
- Format: biochemical
- experimentalConditions: Table 4, α-ketoamides
Rule: measured IC50 below 20 nM gets YES; anything equal to or greater than 20 nM gets NO.

Solved cases below.
compound: CS(=O)(=O)N[C@H](COCc1ccccc1)C(=O)N[C@@H](Cc1ccccc1)C(=O)C(=O)NCCNS(=O)(=O)c1ccc(CN2CCOCC2)cc1
qualitativeLabel: YES
//
compound: CS(=O)(=O)N[C@H](COCc1ccccc1)C(=O)N[C@@H](Cc1ccccc1)C(=O)C(=O)NCCNS(=O)(=O)c1ccc(-c2ccc(CN3CCOCC3)cc2)s1
qualitativeLabel: NO
//
compound: CS(=O)(=O)NC(COCc1ccccc1)C(=O)NC(Cc1ccccc1)C(=O)C(=O)NCCNS(=O)(=O)c1ccc(-c2cccc(C#N)c2)s1 (mixture of isomers)
qualitativeLabel: YES
//
compound: CS(=O)(=O)N[C@H](COCc1ccccc1)C(=O)N[C@@H](Cc1ccccc1)C(=O)C(=O)NCCS(=O)(=O)Nc1ccccc1
qualitativeLabel: NO
//
compound: CS(=O)(=O)N[C@H](COCc1ccccc1)C(=O)N[C@@H](Cc1ccccc1)C(=O)C(=O)NCCNS(=O)(=O)c1cccc(-c2csc(N)n2)c1
qualitativeLabel: NO

Read the next record carefully.
Field: below-cutoff. Rule: recorded IC50 strictly less than 20 nM. Subject: CN1CCN(Cc2cccc(-c3ccc(S(=O)(=O)NCCNC(=O)C(=O)[C@H](Cc4ccccc4)NC(=O)[C@@H](COCc4ccccc4)NS(C)(=O)=O)s3)c2)CC1
NO
